# ASSAYED SYSTEM: NLRP3 (Homo sapiens, UniProt Q96P20)
# Sequence (Q96P20 whole entry): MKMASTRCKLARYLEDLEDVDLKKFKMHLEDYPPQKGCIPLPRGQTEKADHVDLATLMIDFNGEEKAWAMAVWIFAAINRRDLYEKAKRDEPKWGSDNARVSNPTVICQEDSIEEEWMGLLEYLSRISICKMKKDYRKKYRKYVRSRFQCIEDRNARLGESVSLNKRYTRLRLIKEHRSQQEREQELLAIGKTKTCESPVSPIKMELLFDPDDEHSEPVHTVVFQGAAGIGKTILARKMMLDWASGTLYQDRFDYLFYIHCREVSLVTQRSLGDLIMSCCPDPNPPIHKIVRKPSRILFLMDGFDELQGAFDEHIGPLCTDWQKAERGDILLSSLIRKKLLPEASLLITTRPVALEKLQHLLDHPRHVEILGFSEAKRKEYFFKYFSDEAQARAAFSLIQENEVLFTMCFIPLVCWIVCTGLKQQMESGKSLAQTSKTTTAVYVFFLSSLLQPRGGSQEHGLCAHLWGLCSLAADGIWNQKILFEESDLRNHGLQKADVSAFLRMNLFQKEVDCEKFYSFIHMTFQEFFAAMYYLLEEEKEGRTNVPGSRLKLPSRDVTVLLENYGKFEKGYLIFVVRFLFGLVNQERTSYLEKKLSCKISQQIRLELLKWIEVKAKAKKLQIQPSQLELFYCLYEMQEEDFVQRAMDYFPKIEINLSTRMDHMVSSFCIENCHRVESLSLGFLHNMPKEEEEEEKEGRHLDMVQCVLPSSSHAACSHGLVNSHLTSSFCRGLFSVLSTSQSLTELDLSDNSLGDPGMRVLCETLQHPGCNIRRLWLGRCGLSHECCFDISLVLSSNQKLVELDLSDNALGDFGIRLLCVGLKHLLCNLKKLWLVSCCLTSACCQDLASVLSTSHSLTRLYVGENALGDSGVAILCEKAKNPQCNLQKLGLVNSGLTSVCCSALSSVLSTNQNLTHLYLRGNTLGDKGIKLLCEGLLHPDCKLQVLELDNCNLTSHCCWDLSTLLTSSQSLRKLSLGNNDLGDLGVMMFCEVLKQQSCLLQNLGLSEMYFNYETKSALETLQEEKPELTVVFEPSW
# EXPERIMENT NOTES: THP-1 cells pyroptosis assay (LPS + nigericin, resazurin readout)
# Type: cell-based
# Set-up: Seed THP-1 cells (25,000 cells/well) containing 1.0 μg/ml LPS; host or cells: THP-1 cells
# MEASUREMENT PARAMETERS: NLRP3 inhibitory activity, 1.0 μg/ml LPS, 3 hrs compound, nigericin 5 μM 1 hr
// IC50 lookup, one value per entry

{"columns": ["STRUCTURE AS SMILES", "IC50"],
 "data": [
  ["CC1(C)COc2cc(ccn2)-c2ccc3c(c2CC(=O)NS(=O)(=O)c2nn1cc2F)CCC3", "5 to 10 µM"],
  ["O=C1Cc2c(ccc3c2CCC3)-c2ccnc(c2)OCCc2cccc(c2)S(=O)(=O)N1", "5 to 10 µM"],
  ["CC(C)c1cccc2c1CC(=O)NS(=O)(=O)c1cc(n(C(C)C)n1)CCOc1cc-2ccn1", "1 to 5 µM"]
]}

Consider the additional compound presented here.
Ask: So what does the record say about IC50 for "COc1cn2nc1S(=O)(=O)NC(=O)Cc1c(cc(F)cc1C(C)C)-c1ccnc(c1)OCC2(C)C" ?
Reply: 0.1 to 0.5 µM

Data provenance is patent US20220389031A1.
